Provenance of the data: PubChem BioAssay AID624255

Overview of reported inhibition across a group of molecules:
assay: T. cruzi intracellular proliferation inhibitors, primary screen, cell-based, beta-gal Tulahuen parasites, NIH3T3 host, luminescence (AID 624255); conditions: T. cruzi beta-gal in NIH3T3, GalScreen luminescence, 90 h; at 8.34 µM; active compounds read high
Among all 77,000 compounds or so, about 4,600 (6%) were called active. Inconclusive results (about 1%) are left out. The list comes from a sample in which actives are over-represented; it also holds close analogues and randomly drawn compounds.

- Compound: "COc1cccc(-c2ccc3n(c2=O)C[C@@H]2[C@@H](CO)[C@H](C(=O)N4CCCCC4)N[C@H]32)c1"
  inhibition / %: 13.4
- Compound: "COc1ccc(NC(=O)N(C)C[C@@H]2Oc3c(NC(=O)NC4CCCCC4)cccc3C(=O)N([C@@H](C)CO)C[C@@H]2C)cc1"
  inhibition / %: 99.3
- Compound: "COc1cccc(S(=O)(=O)N2C[C@@H](O)COC[C@H]3O[C@H](CC(=O)N4CCCCC4)CC[C@@H]32)c1"
  inhibition / %: 25.3
- Compound: "C[C@@H]1CCCCO[C@@H](CN(C)CC2CC2)[C@@H](C)CN([C@H](C)CO)C(=O)c2cc(NC(=O)C3CCCCC3)ccc2O1"
  inhibition / %: 89
- Compound: "CCCN(C)C[C@@H]1Oc2cc(C#Cc3ccc(F)cc3)ccc2S(=O)(=O)N([C@H](C)CO)C[C@H]1C"
  inhibition / %: 100
- Compound: "C[C@@H]1CN([C@@H](C)CO)C(=O)c2cc(NC(=O)C3CCCCC3)ccc2O[C@@H](C)CCCCO[C@@H]1CN(C)Cc1ccc(C(=O)O)cc1"
  inhibition / %: 15.2
- Compound: "O=C(C[C@H]1C[C@H]2c3cc(NC(=O)CC4CC4)ccc3O[C@H]2[C@H](CO)O1)NCc1cc(F)ccc1F"
  inhibition / %: -48.8
- Compound: "C[C@@H]1CN([C@@H](C)CO)S(=O)(=O)c2ccc(C#Cc3ccc(F)cc3)cc2O[C@H]1CN(C)S(C)(=O)=O"
  inhibition / %: 113
- Compound: "CCCN(C)C[C@@H]1Oc2cc(C#CC3CCCCC3)ccc2S(=O)(=O)N([C@@H](C)CO)C[C@@H]1C"
  inhibition / %: 42.1
- Compound: "C[C@@H]1CCCCO[C@H](CN(C)S(=O)(=O)c2ccc(Cl)cc2)[C@@H](C)CN([C@H](C)CO)C(=O)c2cc(NC(=O)Nc3ccc4c(c3)OCO4)ccc2O1"
  inhibition / %: 82.9
- Compound: "O=C(O)C[C@H]1C[C@@H]2c3cc(NC(=O)Nc4ccc(C(F)(F)F)cc4)ccc3O[C@@H]2[C@@H](CO)O1"
  inhibition / %: -33
- Compound: "C[C@H]1CN([C@@H](C)CO)C(=O)c2cccc(NS(=O)(=O)c3cn(C)cn3)c2O[C@H]1CN(C)C(=O)Nc1ccc2c(c1)OCO2"
  inhibition / %: -234
- Compound: "C[C@H](CO)N1C[C@H](C)[C@@H](CN(C)Cc2ccccc2)Oc2ccc(NC(=O)Nc3ccc4c(c3)OCO4)cc2C1=O"
  inhibition / %: 8.73
- Compound: "C[C@@H]1CN([C@@H](C)CO)S(=O)(=O)c2ccc(C#CC3CCCC3)cc2O[C@H]1CN(C)S(C)(=O)=O"
  inhibition / %: -41.8
- Compound: "C[C@@H]1CCCCO[C@@H](CN(C)CC2CCCCC2)[C@H](C)CN([C@H](C)CO)C(=O)c2cc(NC(=O)C3CCCCC3)ccc2O1"
  inhibition / %: 51.3
- Compound: "C[C@@H]1CN([C@@H](C)CO)C(=O)c2cc(NC(=O)Nc3ccc4c(c3)OCO4)ccc2O[C@@H]1CN(C)Cc1ccc(Oc2ccccc2)cc1"
  inhibition / %: 100
- Compound: "C[C@@H]1CCCCO[C@@H](CN(C)CC2CC2)[C@H](C)CN([C@H](C)CO)C(=O)c2cc(NC(=O)C3CCCCC3)ccc2O1"
  inhibition / %: 102
- Compound: "COc1ccc(S(=O)(=O)Nc2ccc3c(c2)CC(=O)N([C@H](C)CO)C[C@@H](C)[C@H](CN(C)S(=O)(=O)c2c(C)noc2C)O3)cc1"
  inhibition / %: -5.62
- Compound: "C[C@H]1CN([C@@H](C)CO)C(=O)c2cc(NC(=O)C3CC3)ccc2O[C@@H]1CN(C)Cc1ccc(Oc2ccccc2)cc1"
  inhibition / %: 66.9
- Compound: "CCCN(C)C[C@@H]1Oc2cc(C#CCc3ccccc3)ccc2S(=O)(=O)N([C@H](C)CO)C[C@@H]1C"
  inhibition / %: 80.1
- Compound: "CC(C)NC(=O)Nc1ccc2c(c1)C(=O)N([C@@H](C)CO)C[C@@H](C)[C@@H](CN(C)S(=O)(=O)c1ccc(F)cc1)OCCCC[C@H](C)O2"
  inhibition / %: -55.2
